# tested_system: human sst1 (Homo sapiens)
# Sequence (P30872 whole entry): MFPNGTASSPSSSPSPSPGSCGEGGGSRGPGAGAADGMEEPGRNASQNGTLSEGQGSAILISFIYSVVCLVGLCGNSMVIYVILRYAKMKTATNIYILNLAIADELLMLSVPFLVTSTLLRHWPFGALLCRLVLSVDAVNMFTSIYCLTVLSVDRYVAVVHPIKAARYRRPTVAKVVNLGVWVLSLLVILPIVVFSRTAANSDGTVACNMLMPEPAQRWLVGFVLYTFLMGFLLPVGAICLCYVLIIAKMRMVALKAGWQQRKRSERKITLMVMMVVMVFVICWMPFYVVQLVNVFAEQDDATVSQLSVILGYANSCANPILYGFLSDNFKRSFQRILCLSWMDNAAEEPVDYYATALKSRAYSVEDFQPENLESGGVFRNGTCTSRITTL
Bridge positions count the residues as written; N and C are the ends. Square brackets hold non-standard residues; d marks the D form. Peptide text beside a SMILES is read from it. dDab = NCC[C@@H](N)C(=O)O
measured_endpoint: pIC50
# pIC50 is unitless: minus log10 of the molar concentration; print number only

Report pIC50 on human sst1 (Homo sapiens) for this entry: C[C@@H](O)[C@@H]1NC(=O)[C@H](CCCCN)NC(=O)[C@@H](Cc2c[nH]c3ccccc23)NC(=O)[C@H](Cc2ccc(O)cc2)NC(=O)[C@H](Cc2ccccc2)NC(=O)[C@H](CCCNC(=N)N)NC(=O)[C@H](N)CCNC(=O)[C@H](Cc2ccccc2)NC1=O [A with X4 is Tyr] (H-[dDab]RFY[dW]KTF; lactam 1-C)
7.61

Data provenance: patent US7541018B2
